Catalogue of activation values
Test: qHTS assay for environmental chemicals that activate the Aryl hydrocarbon Receptor (AhR) signaling pathway (AID 651777); note: % of control where 0% means no effect; nearly all actives have a fitted effect of over 15% in size
Conditions: 1A2-DRE human hepatoma cells, luciferase, 24 h; hits give high values
Records with an inconclusive call do not appear.
Give the value, in units of %, as a plain number.

Please review the following examples before continuing.
MOLECULE: CCOc1ccc(NC(=O)OC(C)C)cc1OCC
activation / %: 2.6
//
MOLECULE: C[N+](C)(C)CC(O)CCl (centres undefined)
activation / %: 0.882
//
MOLECULE: C=CCOC(=O)CC(C)C
activation / %: -1.24
//
MOLECULE: O=c1n(CCO)c(=O)n(CCO)c(=O)n1CCO
activation / %: 0.674

Exercise: I would be grateful if you could share the reported activation for CCOC(=O)NCCOc1ccc(Oc2ccccc2)cc1 .
Solution: 5.93

Exercise: I would be grateful if you could share the reported activation for S=C([S-])NCCNC(=S)[S-].S=C([S-])NCCNC(=S)[S-].[Mn+2].[Zn+2] .
Solution: 0.587

Exercise: I would be grateful if you could share the reported activation for CCCCCCCC/C=C\CCCCCCCCCCCCC .
Solution: -0.312

Exercise: I would be grateful if you could share the reported activation for COC(=O)c1ccc(CNS(C)(=O)=O)cc1S(=O)(=O)NC(=O)Nc1nc(OC)cc(OC)n1 .
Solution: -2.23

Exercise: I would be grateful if you could share the reported activation for CC1=CC(=O)CC(C)(C)C1 .
Solution: 0.188

Exercise: I would be grateful if you could share the reported activation for CCCCOCC(C)OCC(C)O (centres undefined) .
Solution: 0.285

Exercise: I would be grateful if you could share the reported activation for CC(C)c1cccc(C(C)C)c1 .
Solution: 2.18

Exercise: I would be grateful if you could share the reported activation for Cc1ccc(Cl)cc1Cl .
Solution: 1.78

Exercise: I would be grateful if you could share the reported activation for CC(C)CCCCCCc1ccc(OCCOCCO)cc1 .
Solution: -9.42

Exercise: I would be grateful if you could share the reported activation for CC(=O)/C=C/C1C(C)=CCCC1(C)C (centres undefined) .
Solution: 0.579

# credit: PubChem BioAssay (NCATS)
